test system: MDA-MB-231; assay: relative cell viability, compound alone, vs DMSO (fraction of DMSO control); higher = less growth inhibition; conditions: 72 h
Label key: condition met means relative cell viability under 0.9; condition not met means relative cell viability of 0.9 or more.

Would you kindly verify if relative cell viability of Nc1ncnc2c1ncn2[C@@H]1O[C@H](COP(=O)(O)O)[C@@H](O)[C@H]1O [Adenosine 5'-monophosphate] is strictly less than 0.9?
condition met

A record lists `COc1ccc(-c2cc(=O)c3c(O)c(OC)c(OC)c(OC)c3o2)cc1OC` . Is its relative cell viability below 0.9?
condition met

# strict comparison: is reported relative cell viability < 0.9? input = Cc1c(C(=O)NN2CCCCC2)nn(-c2ccc(Cl)cc2Cl)c1-c1ccc(Cl)cc1 [Rimonabant]
condition met

Does CC1(C)CC[C@]2(C(=O)O[C@@H]3O[C@H](CO)[C@@H](O)[C@H](O)[C@H]3O)CC[C@]3(C)C(=CC[C@@H]4[C@@]5(C)CC[C@H](O[C@@H]6O[C@H](C(=O)O)[C@@H](O)[C@H](O)[C@H]6O)C(C)(C)[C@@H]5CC[C@]43C)[C@@H]2C1 [Chikusetsusaponin IVa] have relative cell viability strictly under 0.9?
condition not met

Find out if reported relative cell viability for C=CC[S+]([O-])C[C@H](N)C(=O)O (some centres not stated) [Alliin] is less than 0.9
condition not met

Hello, I'm reviewing records and need to know if relative cell viability of CN1CC(O)C2=C/C(=N/NC(N)=O)C(=O)C=C21 (configuration not stated) [Carbazochrome] is below 0.9. Could you check?
condition met

====

system: HCC1937; assay: relative cell viability, compound + RSL3, vs DMSO (fraction of DMSO control); higher = less growth inhibition; settings: 72 h
RECORDED_ENDPOINT: relative cell viability
Just the number, please.

Could you tell me which relative cell viability is on file for CC(C)C1=CC2=CC[C@@H]3[C@](C)(CCC[C@@]3(C)C(=O)O)[C@H]2CC1 [Abietic Acid] + COC(=O)c1ccc([C@H]2c3[nH]c4ccccc4c3C[C@H](C(=O)OC)N2C(=O)CCl)cc1 [RSL3] ?
0.586

Fill blank: measured relative cell viability of the compound O=c1c(-c2ccc(O)cc2)coc2cc(O)ccc12 [Daidzein] + COC(=O)c1ccc([C@H]2c3[nH]c4ccccc4c3C[C@H](C(=O)OC)N2C(=O)CCl)cc1 [RSL3] is ____.
0.865

relative cell viability lookup needed for CCCCCCCCCCC#CC#CCCCCCCCCC(=O)O [10,12-Tricosadiynoic acid] + COC(=O)c1ccc([C@H]2c3[nH]c4ccccc4c3C[C@H](C(=O)OC)N2C(=O)CCl)cc1 [RSL3] , thanks.
0.4

What value of relative cell viability has been reported for the following compound? NC(=O)c1cnccn1 [Pyrazinamide] + COC(=O)c1ccc([C@H]2c3[nH]c4ccccc4c3C[C@H](C(=O)OC)N2C(=O)CCl)cc1 [RSL3]
0.607

Sample CCCCCCCCCCCCCCOc1ccc(C(=O)O)o1 + COC(=O)c1ccc([C@H]2c3[nH]c4ccccc4c3C[C@H](C(=O)OC)N2C(=O)CCl)cc1 [RSL3] — what was its relative cell viability?
0.613

====

Hi there, I'd appreciate the recorded relative cell viability for every entry that follows.
tested on: MDA-MB-231; test: relative cell viability, compound + RSL3, vs DMSO (fraction of DMSO control); higher = less growth inhibition; settings: 72 h
Counter-ions that a name gives are not always drawn.
Reply with the value as a number alone.

Can you share its relative cell viability? I mean this compound: C=C1C[C@]2(O)O[C@@]3(CC2=C(C)C)[C@@H](C)CC[C@@H]13 [Isocurcumenol] + COC(=O)c1ccc([C@H]2c3[nH]c4ccccc4c3C[C@H](C(=O)OC)N2C(=O)CCl)cc1
0.568

Quick one: relative cell viability of COc1ccc(N(C(=O)Nc2c(C)cccc2C)c2cc(Nc3ccc(N4CCN(C)CC4)cc3)ncn2)c(OC)c1 + COC(=O)c1ccc([C@H]2c3[nH]c4ccccc4c3C[C@H](C(=O)OC)N2C(=O)CCl)cc1 ?
0.576

I am curious: what relative cell viability value has been reported for O=C(c1ccc(NS(=O)(=O)c2cccc3cccnc23)cc1)N1CCN(CC2CC2)CC1 [Mitapivat] + COC(=O)c1ccc([C@H]2c3[nH]c4ccccc4c3C[C@H](C(=O)OC)N2C(=O)CCl)cc1 ?
0.654

Reported relative cell viability for O=C(Nc1ccc(C(O)(C(F)(F)F)C(F)(F)F)cc1)c1ccc(C(F)(F)F)cc1 + COC(=O)c1ccc([C@H]2c3[nH]c4ccccc4c3C[C@H](C(=O)OC)N2C(=O)CCl)cc1 : what is it?
0.255

Consider the compound shown here: Oc1ccc2c(c1)OCO2 [Sesamol] + COC(=O)c1ccc([C@H]2c3[nH]c4ccccc4c3C[C@H](C(=O)OC)N2C(=O)CCl)cc1 What is its recorded relative cell viability?
0.548

Sample CCC(=O)O[C@]1(C(=O)SCF)[C@H](C)C[C@H]2[C@@H]3C[C@H](F)C4=CC(=O)C=C[C@]4(C)[C@@]3(F)[C@@H](O)C[C@@]21C [Fluticasone propionate] + COC(=O)c1ccc([C@H]2c3[nH]c4ccccc4c3C[C@H](C(=O)OC)N2C(=O)CCl)cc1 — what was its relative cell viability?
0.566

Any idea what its relative cell viability is? The compound is O=C(O)CCn1c2c(c3ccccc31)C[C@H](NS(=O)(=O)c1ccc(F)cc1)CC2 [Ramatroban] + COC(=O)c1ccc([C@H]2c3[nH]c4ccccc4c3C[C@H](C(=O)OC)N2C(=O)CCl)cc1
0.554

// query relative cell viability value for entry O=C(Nc1cccnn1)N1CCC(=Cc2cccc(Oc3ccc(C(F)(F)F)cn3)c2)CC1 + COC(=O)c1ccc([C@H]2c3[nH]c4ccccc4c3C[C@H](C(=O)OC)N2C(=O)CCl)cc1
0.601

I would be grateful if you could share the reported relative cell viability for O=P(O)(O)OC(CO)CO [β-Glycerol phosphate disodium salt pentahydrate] + COC(=O)c1ccc([C@H]2c3[nH]c4ccccc4c3C[C@H](C(=O)OC)N2C(=O)CCl)cc1 .
0.56

Need relative cell viability, item Nn1nnc2ccccc21 [1-Aminobenzotriazole] + COC(=O)c1ccc([C@H]2c3[nH]c4ccccc4c3C[C@H](C(=O)OC)N2C(=O)CCl)cc1
0.758

Form field: reported relative cell viability of CN1CCN(C(=O)C2C(C(=O)O)[C@H]3CC[C@@H]2O3)CC1 (some centres undefined) + COC(=O)c1ccc([C@H]2c3[nH]c4ccccc4c3C[C@H](C(=O)OC)N2C(=O)CCl)cc1
0.367

What relative cell viability value was documented for this compound, N#Cc1c(O)c2c(-c3ccc(-c4ccccc4O)cc3)csc2[nH]c1=O + COC(=O)c1ccc([C@H]2c3[nH]c4ccccc4c3C[C@H](C(=O)OC)N2C(=O)CCl)cc1 ?
0.423

GET /values?readout=relative cell viability&item= O=S(=O)(O)c1ccc2cc(N=Nc3cc(S(=O)(=O)O)c4cccnc4c3O)ccc2c1 + COC(=O)c1ccc([C@H]2c3[nH]c4ccccc4c3C[C@H](C(=O)OC)N2C(=O)CCl)cc1
0.744

Consider the compound shown here: CC1=C(C)C(=O)C(C(CCCCCC(=O)O)c2ccccc2)=C(C)C1=O (centres undefined) [Seratrodast] + COC(=O)c1ccc([C@H]2c3[nH]c4ccccc4c3C[C@H](C(=O)OC)N2C(=O)CCl)cc1 What is its recorded relative cell viability?
0.578

Give its relative cell viability value. Item: COc1ccc(-c2coc3cc(OC)ccc3c2=O)cc1 [4',7-Dimethoxyisoflavone] + COC(=O)c1ccc([C@H]2c3[nH]c4ccccc4c3C[C@H](C(=O)OC)N2C(=O)CCl)cc1
0.36

Using the record for C=CCc1ccc(O)c(-c2cc(CC=C)ccc2O)c1 [Magnolol] + COC(=O)c1ccc([C@H]2c3[nH]c4ccccc4c3C[C@H](C(=O)OC)N2C(=O)CCl)cc1 , report its relative cell viability.
0.668

Data request, read-out relative cell viability, for Cc1ccc(Oc2nc3cc(-c4ccc(-c5ccccc5)cc4)c(Cl)cc3[nH]2)cc1C(=O)O + COC(=O)c1ccc([C@H]2c3[nH]c4ccccc4c3C[C@H](C(=O)OC)N2C(=O)CCl)cc1
0.6

What value of measured relative cell viability is listed for CC(C)=CCC[C@](C)(O)[C@H]1CC[C@]2(C)[C@@H]1[C@H](O)C[C@@H]1[C@@]3(C)CC[C@H](O)C(C)(C)[C@@H]3[C@@H](O)C[C@]12C [(20S)-Protopanaxatriol] + COC(=O)c1ccc([C@H]2c3[nH]c4ccccc4c3C[C@H](C(=O)OC)N2C(=O)CCl)cc1 ?
0.672

Fill in: relative cell viability of COc1cc([C@@H]2Oc3c(O)cc([C@H]4Oc5cc(O)cc(O)c5C(=O)[C@@H]4O)cc3[C@H]2CO)ccc1O [Silychristin] + COC(=O)c1ccc([C@H]2c3[nH]c4ccccc4c3C[C@H](C(=O)OC)N2C(=O)CCl)cc1 is ___
0.66
